Assay: n-octanol/aqueous buffer distribution coefficient, logD of compound at pH 7.4 by shake flask assay based HPLC-MS analysis
Assay type: physicochemical
metric name: logD

# smi, logD
data = [
    ("CONC(=O)c1cn(Cc2cc(O)cc(O)c2)c2ccccc2c1=O", 0.73),
    ("O=C(NO)c1cn(Cc2ccccc2)c2ccccc2c1=O", 1.53),
    ("CONC(=O)c1cn(Cc2ccccc2)c2ccccc2c1=O", 1.19),
    ("O=C(O)c1cn(Cc2cc(O)cc(O)c2)c2ccccc2c1=O", 0.57),
]

P = O=C(O)c1cn(Cc2ccccc2)c2ccccc2c1=O
Q = CS(=O)(=O)NC(=O)c1cn(Cc2ccccc2)c2ccccc2c1=O
R = O=C(NO)c1cn(Cc2cc(O)cc(O)c2)c2ccccc2c1=O
Ask | Given 3 compounds, produce a descending ranking by logD. Please write the labels in the order that was asked for.
Reply | R, P, Q

====

Target: UniProt P51635
Assay: Inhibition of AKR1A1 in rat kidney at 10 uM relative to control
metric name: inhibition at 10 µM (%)

These recorded examples may help you get a feel for the data.
# smi, inhibition at 10 µM, %
data = [
    ("CS(=O)(=O)NC(=O)c1cn(Cc2ccccc2)c2ccccc2c1=O", 7.9),
    ("COc1cc(Cn2cc(C(=O)NO)c(=O)c3ccccc32)cc(OC)c1", 17.2),
    ("O=C(O)c1cn(Cc2ccc(F)cc2)c2ccccc2c1=O", 30.2),
    ("O=C(NO)c1cn(Cc2ccc(Br)cc2)c2ccccc2c1=O", 17.6),
    ("O=C(NO)c1cn(Cc2ccc(O)c(O)c2)c2ccccc2c1=O", 25.4),
    ("O=C(O)c1cn(Cc2ccccc2)c2ccccc2c1=O", 5.8),
    ("O=C(O)c1cn(Cc2ccc(Br)cc2)c2ccccc2c1=O", 20.1),
    ("CONC(=O)c1cn(Cc2ccccc2)c2ccccc2c1=O", 5.1),
    ("O=C(NO)c1cn(Cc2ccc(O)cc2)c2ccccc2c1=O", 34.6),
    ("O=C(O)c1cn(Cc2cc(O)cc(O)c2)c2ccccc2c1=O", 36.6),
]

A = O=C(NO)c1cn(Cc2ccccc2)c2ccccc2c1=O
B = O=C(NO)c1cn(Cc2cc(O)cc(O)c2)c2ccccc2c1=O
C = CC(/C=C1\SC(=S)N(CC(=O)O)C1=O)=C\c1ccccc1
Ask | Given 3 molecules, produce a descending ranking by inhibition at 10 µM. Please write the labels in the order that was asked for.
Reply | C, B, A

====

Experiment: Antioxidant activity assessed as DPPH radical scavenging activity at 50 uM relative to control
Assay type: functional
Quick reference: Activity of the listed items.
The answer is to be given in %; state only the numeric part.

Ask | Give its Activity value. Item: O=C(O)c1cn(Cc2cc(O)cc(O)c2)c2ccccc2c1=O
Reply | 71.1

Ask | Give its Activity value. Item: Cc1c(C)c2c(c(C)c1O)CCC(C)(C(=O)O)O2 (centres undefined)
Reply | 84.1

Ask | Give its Activity value. Item: O=C(O)c1cn(Cc2ccc(O)c(O)c2)c2ccccc2c1=O
Reply | 61.9

Ask | Give its Activity value. Item: O=C(NO)c1cn(Cc2ccc(O)cc2)c2ccccc2c1=O
Reply | 51.1

====

Target: AKR1A1 (aldo-keto reductase family 1 member A1) (Rattus norvegicus, UniProt P51635)
Sequence (P51635 whole entry): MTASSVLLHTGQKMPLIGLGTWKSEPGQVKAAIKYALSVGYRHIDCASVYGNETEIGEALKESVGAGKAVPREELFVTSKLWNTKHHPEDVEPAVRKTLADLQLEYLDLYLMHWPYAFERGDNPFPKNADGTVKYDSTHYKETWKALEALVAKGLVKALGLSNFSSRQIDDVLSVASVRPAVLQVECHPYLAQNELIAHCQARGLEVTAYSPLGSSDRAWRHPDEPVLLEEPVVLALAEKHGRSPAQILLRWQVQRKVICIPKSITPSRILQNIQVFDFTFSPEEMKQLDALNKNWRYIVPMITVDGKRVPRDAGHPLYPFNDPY
Experiment: Inhibition of AKR1A1 in rat kidney at 10 uM relative to control
metric name: inhibition at 10 µM (%)

# smi, unit of measurement, inhibition at 10 µM
records = [
    ("O=C(NO)c1cn(Cc2ccc(F)cc2)c2ccccc2c1=O", "%", 24.1),
    ("O=C(O)c1cn(Cc2ccc(Cl)cc2)c2ccccc2c1=O", "%", 18.3),
    ("COc1ccc(Cn2cc(C(=O)O)c(=O)c3ccccc32)cc1OC", "%", 24.8),
    ("O=C(O)c1cn(Cc2ccc(O)c(O)c2)c2ccccc2c1=O", "%", 38.6),
    ("COc1ccc(Cn2cc(C(=O)NO)c(=O)c3ccccc32)cc1OC", "%", 10.5),
]

P = O=C(O)c1cn(Cc2ccc(O)cc2)c2ccccc2c1=O
Q = CONC(=O)c1cn(Cc2cc(O)cc(O)c2)c2ccccc2c1=O
Ask | Which has the higher inhibition at 10 µM, P or Q ? API: response body contains the label of the selected item.
Reply | P
(P: 37.5%, Q: 21.7%)

a = COc1cc(Cn2cc(C(=O)O)c(=O)c3ccccc32)cc(OC)c1
b = COc1ccc(Cn2cc(C(=O)NO)c(=O)c3ccccc32)cc1
Ask | Which has the higher inhibition at 10 µM, a or b ? API: response body contains the label of the selected item.
Reply | a
(a: 30.1%, b: 7.6%)
